Test system: 648629-189-R-J1-PDC spheroids with HUVEC/MSC, viability
Test: Anticancer human tumor 648629-189-R-J1-PDC patient-derived bladder carcinoma cell line growth inhibition [PI3K]
Conditions: second compound 3.16 µM; first compound 3.16 µM; stronger effect = lower value
# label = t if viability, T/C < 60% else f

Reference set (3 entries):
Cn1nccc1Nc1nccc(-c2ccn(C(CO)c3ccc(Cl)c(F)c3)c(=O)c2)n1 (configuration not stated) + CC(Nc1ncnc2nc[nH]c12)c1cc2cccc(Cl)c2c(=O)n1-c1ccccc1    f
CC(C)NCC(C(=O)N1CCN(c2ncnc3c2C(C)CC3O)CC1)c1ccc(Cl)cc1 (configuration not stated) + CC(Nc1ncnc2nc[nH]c12)c1cc2cccc(Cl)c2c(=O)n1-c1ccccc1    t
CC1(C)CCC(Nc2ncc(C(F)(F)F)c(-c3c[nH]c4c(P(C)(C)=O)c(C#N)ccc34)n2)CN1 (configuration not stated) + CC(Nc1ncnc2nc[nH]c12)c1cc2cccc(Cl)c2c(=O)n1-c1ccccc1    t

Consider the compound CNC(=O)c1ccc(N2C(=S)N(c3ccc(C#N)c(C(F)(F)F)c3)C(=O)C2(C)C)cc1F + CC(Nc1ncnc2nc[nH]c12)c1cc2cccc(Cl)c2c(=O)n1-c1ccccc1 . Is its viability, T/C strictly less than 60%?
f

viability, T/C under 60%? Item: CNC(=O)c1ccc(N2C(=S)N(c3ccc(C#N)c(C(F)(F)F)c3)C(=O)C2(C)C)cc1F + Cc1nc(NC(=O)N2CCCC2C(N)=O)sc1-c1ccnc(C(C)(C)C(F)(F)F)c1
f

Dear colleague, could you confirm whether viability, T/C of CCCS(=O)(=O)Nc1ccc(F)c(C(=O)c2c[nH]c3ncc(-c4ccc(Cl)cc4)cc23)c1F + Cc1nc(NC(=O)N2CCCC2C(N)=O)sc1-c1ccnc(C(C)(C)C(F)(F)F)c1 falls below 60%? Thanks.
t

Criterion: viability, T/C strictly below 60%. Is it met by CC(Cn1ccc(-c2ccc(C#N)c(Cl)c2)n1)NC(=O)c1cc(C(C)O)[nH]n1 (configuration not stated) + CC(Nc1ncnc2nc[nH]c12)c1cc2cccc(Cl)c2c(=O)n1-c1ccccc1 ?
f

====

Test system: 648629-189-R-J1-PDC spheroids with HUVEC/MSC, viability
Experiment: Anticancer human tumor 648629-189-R-J1-PDC cell line growth inhibition [PI3K];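 further: spheroids exposed to agents for seven days before reading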;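 on viability, T/C: percent of vehicle control luminescence where 100% = DMSO treated spheroids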
Conditions: second compound 3.16 µM; first compound 3.16 µM; stronger effect = lower value
Criterion: viability, T/C strictly under 60%. Met: yes (1). Not met: no (0).

The following compounds have reported results that may help.
CC1(C)CCC(CN2CCN(c3ccc(C(=O)NS(=O)(=O)c4ccc(NCC5CCOCC5)c([N+](=O)[O-])c4)c(Oc4cnc5[nH]ccc5c4)c3)CC2)=C(c2ccc(Cl)cc2)C1 + CC(Nc1ncnc2nc[nH]c12)c1cc2cccc(Cl)c2c(=O)n1-c1ccccc1    no (0)
CCCS(=O)(=O)Nc1ccc(F)c(C(=O)c2c[nH]c3ncc(-c4ccc(Cl)cc4)cc23)c1F + CC(Nc1ncnc2nc[nH]c12)c1cc2cccc(Cl)c2c(=O)n1-c1ccccc1    no (0)
CC(C)NCC(C(=O)N1CCN(c2ncnc3c2C(C)CC3O)CC1)c1ccc(Cl)cc1 (stereo not given) + Cc1nc(NC(=O)N2CCCC2C(N)=O)sc1-c1ccnc(C(C)(C)C(F)(F)F)c1    yes (1)

Alright, here's another compound for you.
Quick check: viability, T/C of Cn1ncc(Cl)c1-c1cc(C(=O)NC(CN)Cc2cccc(F)c2)sc1Cl (stereo not given) + CC(Nc1ncnc2nc[nH]c12)c1cc2cccc(Cl)c2c(=O)n1-c1ccccc1 under 60%?
yes (1)

====

Give IC50 for every item shown.
Test system: 648629-189-R-J1-PDC spheroids with HUVEC/MSC, viability
Assay: Anticancer human tumor 648629-189-R-J1-PDC cell line growth inhibition [PI3K];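 further: spheroids exposed to agents for seven days before reading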
Conditions: curve of first compound; second compound 10 µM

Recorded results for 2 compounds are shown here.
C=CC(=O)N1CCN(c2nc(=O)n(-c3c(C)ccnc3C(C)C)c3nc(-c4c(O)cccc4F)c(F)cc23)C(C)C1 (stereo not drawn) + CC(Nc1ncnc2nc[nH]c12)c1cc2cccc(Cl)c2c(=O)n1-c1ccccc1    > 10 µM
C=CC(=O)N1CCN(c2nc(=O)n(-c3c(C)ccnc3C(C)C)c3nc(-c4c(O)cccc4F)c(F)cc23)C(C)C1 (stereo not drawn) + Cc1nc(NC(=O)N2CCCC2C(N)=O)sc1-c1ccnc(C(C)(C)C(F)(F)F)c1    < 0.0316 µM

Let's switch to this compound now.
Please look up its IC50: CC(C)NCC(C(=O)N1CCN(c2ncnc3c2C(C)CC3O)CC1)c1ccc(Cl)cc1 (stereo not drawn) + CC(Nc1ncnc2nc[nH]c12)c1cc2cccc(Cl)c2c(=O)n1-c1ccccc1
1.01 µM

====

Tested on: 648629-189-R-J1-PDC spheroids with HUVEC/MSC, viability
Experiment: Anticancer human tumor 648629-189-R-J1-PDC cell line growth inhibition [PI3K];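 further: spheroids exposed to agents for seven days before reading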;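 on viability, T/C: percent of vehicle control luminescence where 100% = DMSO treated spheroids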
Conditions: second compound 0.01 µM; first compound 3.16 µM; stronger effect = lower value
Text: Combinatorial screen of targeted agents with the PI3K inhibitors inavolisib, alpelisib, duvelisib, and copanlisib in multi-cell type tumor spheroids A high-throughput screen of multi-cell type tumor spheroids was designed to identify active combinations of targeted small molecules and PI3K pathway inhibitors. […] Compounds. […] If the clinical Cmax for an agent had not been determined, the highest concentration tested was 10 microM. […]
So I've got a bunch of molecules here, and I need their viability, T/C values.
Give bare numbers, in %.

Worked set:
Cn1ncc(Cl)c1-c1cc(C(=O)NC(CN)Cc2cccc(F)c2)sc1Cl (centres undefined) + COc1c(OCCCN2CCOCC2)ccc2c3n(c(=NC(=O)c4cnc(N)nc4)nc12)CCN3    22.1
CC(C)NCC(C(=O)N1CCN(c2ncnc3c2C(C)CC3O)CC1)c1ccc(Cl)cc1 (centres undefined) + CC(Nc1ccc2c(c1)OCCn1cc(N3C(=O)OCC3C(F)F)nc1-2)C(N)=O    26.8
CC(Cn1ccc(-c2ccc(C#N)c(Cl)c2)n1)NC(=O)c1cc(C(C)O)[nH]n1 (centres undefined) + COc1c(OCCCN2CCOCC2)ccc2c3n(c(=NC(=O)c4cnc(N)nc4)nc12)CCN3    89.1

Parameter requested: viability, T/C. Apply to each item below.
1. C[C@@H](NC(=O)c1ncnc(N)c1Cl)c1ncc(C(=O)Nc2cc(C(F)(F)F)c(Cl)cn2)s1 + COc1c(OCCCN2CCOCC2)ccc2c3n(c(=NC(=O)c4cnc(N)nc4)nc12)CCN3
2. CNC(=O)c1ccc(N2C(=S)N(c3ccc(C#N)c(C(F)(F)F)c3)C(=O)C2(C)C)cc1F + CC(Nc1ccc2c(c1)OCCn1cc(N3C(=O)OCC3C(F)F)nc1-2)C(N)=O
3. Cn1ncc(Cl)c1-c1cc(C(=O)NC(CN)Cc2cccc(F)c2)sc1Cl (centres undefined) + CC(Nc1ccc2c(c1)OCCn1cc(N3C(=O)OCC3C(F)F)nc1-2)C(N)=O
4. CCCS(=O)(=O)Nc1ccc(F)c(C(=O)c2c[nH]c3ncc(-c4ccc(Cl)cc4)cc23)c1F + COc1c(OCCCN2CCOCC2)ccc2c3n(c(=NC(=O)c4cnc(N)nc4)nc12)CCN3
5. CCCS(=O)(=O)Nc1ccc(F)c(C(=O)c2c[nH]c3ncc(-c4ccc(Cl)cc4)cc23)c1F + CC(Nc1ccc2c(c1)OCCn1cc(N3C(=O)OCC3C(F)F)nc1-2)C(N)=O

1. 128
2. 94.8
3. 17.5
4. 82.5
5. 96.5

====

Test system: 648629-189-R-J1-PDC spheroids with HUVEC/MSC, viability
Test: Anticancer human tumor 648629-189-R-J1-PDC cell line growth inhibition [PI3K]; active = viability on the fitted dose curve at most 10% of control; inactive = the rest;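 further: spheroids exposed to agents for seven days before reading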
Settings: compound 10 µM
Pick from 1 = active, -1 = inactive when you respond.

Use the examples below as a reference point.
C=CC(=O)N1CCN(c2nc(=O)n(-c3c(C)ccnc3C(C)C)c3nc(-c4c(O)cccc4F)c(F)cc23)C(C)C1 (centres undefined)    -1
CC(Nc1ncnc2nc[nH]c12)c1cc2cccc(Cl)c2c(=O)n1-c1ccccc1 (centres undefined)    -1
Cn1nccc1Nc1nccc(-c2ccn(C(CO)c3ccc(Cl)c(F)c3)c(=O)c2)n1 (centres undefined)    -1
CC(Cn1ccc(-c2ccc(C#N)c(Cl)c2)n1)NC(=O)c1cc(C(C)O)[nH]n1 (centres undefined)    -1
CC1(C)CCC(Nc2ncc(C(F)(F)F)c(-c3c[nH]c4c(P(C)(C)=O)c(C#N)ccc34)n2)CN1 (centres undefined)    -1
Cc1nc(NC(=O)N2CCCC2C(N)=O)sc1-c1ccnc(C(C)(C)C(F)(F)F)c1 (centres undefined)    -1
CCCS(=O)(=O)Nc1ccc(F)c(C(=O)c2c[nH]c3ncc(-c4ccc(Cl)cc4)cc23)c1F    1
C[C@@H](NC(=O)c1ncnc(N)c1Cl)c1ncc(C(=O)Nc2cc(C(F)(F)F)c(Cl)cn2)s1    -1

Query compound follows.
In this assay, the call recorded for CNC(=O)c1ccc(N2C(=S)N(c3ccc(C#N)c(C(F)(F)F)c3)C(=O)C2(C)C)cc1F was what?
-1
